- target: recombinant TFPI of the FXa restoring assay (human, mouse or rat; not specified for Tables 9 and 10)
- Sequence (P10646 29-304): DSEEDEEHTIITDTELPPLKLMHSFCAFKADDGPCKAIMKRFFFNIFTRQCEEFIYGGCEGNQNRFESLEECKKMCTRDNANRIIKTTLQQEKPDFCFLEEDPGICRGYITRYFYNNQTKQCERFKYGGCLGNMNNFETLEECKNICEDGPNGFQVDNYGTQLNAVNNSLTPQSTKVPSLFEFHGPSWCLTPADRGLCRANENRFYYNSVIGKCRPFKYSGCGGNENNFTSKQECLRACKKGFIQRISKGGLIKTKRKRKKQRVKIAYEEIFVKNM
- test protocol: cell-based or functional assay
Threshold 0.5 nM: EC50, FXa restoring assay strictly smaller gives Condition met, otherwise Condition not met.

Please review the entries below; each comes with its answer.
[
  {
    "binder": "2A8-200 (HC S35D+S55R+K99L/LC Y48F+N51V+D91W) (Fab, V domains shown) VH: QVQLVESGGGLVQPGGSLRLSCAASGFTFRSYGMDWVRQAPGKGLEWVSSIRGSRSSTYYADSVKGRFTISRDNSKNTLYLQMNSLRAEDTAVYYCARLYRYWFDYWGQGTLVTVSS VL: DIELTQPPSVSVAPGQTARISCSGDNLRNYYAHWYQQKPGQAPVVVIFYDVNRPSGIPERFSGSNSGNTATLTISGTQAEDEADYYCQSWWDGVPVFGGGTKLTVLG",
    "class label": "Condition not met"
  },
  {
    "binder": "2A8 wild-type Fab (Fab, V domains shown, Fab with c-myc (or HA, or none) and 6xHis tag at the C-terminus of the heavy chain; also called 2A8wt; 2A8 wt) VH: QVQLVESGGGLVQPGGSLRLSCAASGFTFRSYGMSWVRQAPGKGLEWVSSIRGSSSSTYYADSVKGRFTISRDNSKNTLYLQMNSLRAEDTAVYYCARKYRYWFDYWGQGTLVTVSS VL: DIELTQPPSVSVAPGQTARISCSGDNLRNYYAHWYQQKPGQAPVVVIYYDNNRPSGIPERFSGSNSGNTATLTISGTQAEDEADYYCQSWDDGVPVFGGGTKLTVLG",
    "class label": "Condition not met"
  },
  {
    "binder": "2A8-127 (HC S35D+K99L/LC Y48F+N51V+G56D+V96W) (Fab, V domains shown) VH: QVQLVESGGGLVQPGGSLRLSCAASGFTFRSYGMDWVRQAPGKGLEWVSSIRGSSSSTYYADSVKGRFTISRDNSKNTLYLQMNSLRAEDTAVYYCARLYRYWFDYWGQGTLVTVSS VL: DIELTQPPSVSVAPGQTARISCSGDNLRNYYAHWYQQKPGQAPVVVIFYDVNRPSDIPERFSGSNSGNTATLTISGTQAEDEADYYCQSWDDGVPWFGGGTKLTVLG",
    "class label": "Condition met"
  },
  {
    "binder": "2A8-216 (HC S31V+I51D+S55R+K99V/LC Y48F+D91L+V96W) (Fab, V domains shown) VH: QVQLVESGGGLVQPGGSLRLSCAASGFTFRVYGMSWVRQAPGKGLEWVSSDRGSRSSTYYADSVKGRFTISRDNSKNTLYLQMNSLRAEDTAVYYCARVYRYWFDYWGQGTLVTVSS VL: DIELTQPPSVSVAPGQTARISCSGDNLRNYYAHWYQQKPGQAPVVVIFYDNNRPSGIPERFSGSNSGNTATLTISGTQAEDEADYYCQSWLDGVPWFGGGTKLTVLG",
    "class label": "Condition not met"
  }
]

IN: # TODO verify EC50, FXa restoring assay < 0.5 nM strictly for this binder: 2A8 HC_K99L (Fab, V domains shown, also called 2A8-9) VH: QVQLVESGGGLVQPGGSLRLSCAASGFTFRSYGMSWVRQAPGKGLEWVSSIRGSSSSTYYADSVKGRFTISRDNSKNTLYLQMNSLRAEDTAVYYCARLYRYWFDYWGQGTLVTVSS VL: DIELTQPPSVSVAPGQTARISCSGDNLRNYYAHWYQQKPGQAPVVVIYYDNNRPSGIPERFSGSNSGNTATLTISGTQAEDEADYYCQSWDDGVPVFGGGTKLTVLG
OUT: Condition not met
